# test_name: Aggregation behavior of compound in DMF by UV-vis absorption spectra analysis
# Type: physicochemical
measure: Activity

[[record]]
compound = "OCCOCCOCCO[Si]1(OCCOCCOCCO)n2c3c4ccccc4c2/N=C2N=C(/N=c4/c5ccccc5/c(n41)=N/C1=NC(=N\\3)/c3ccccc31)c1ccccc1\\2"
measure = "Activity"
experimental_result = "Not Active"

[[record]]
compound = "[N-]=[N+]=NCCOCCOCCOCCO[Si]1(OCCOCCOCCOCCN=[N+]=[N-])n2c3c4ccccc4c2/N=C2N=C(/N=c4/c5ccccc5/c(n41)=N/C1=NC(=N\\3)/c3ccccc31)c1ccccc1\\2 (centres undefined)"
measure = "Activity"
experimental_result = "Not Active"

[[record]]
compound = "OCCOCCO[Si]1(OCCOCCO)n2c3c4ccccc4c2/N=C2N=C(/N=c4/c5ccccc5/c(n41)=N/C1=NC(=N\\3)/c3ccccc31)c1ccccc1\\2"
measure = "Activity"
experimental_result = "Not Active"

[[record]]
compound = "[N-]=[N+]=NCCOCCOCCOCCO[Si]1(OCCOCCOCCOCCO)n2c3c4ccccc4c2/N=C2N=C(/N=c4/c5ccccc5/c(n41)=N/C1=NC(=N\\3)/c3ccccc31)c1ccccc1\\2 (centres undefined)"
measure = "Activity"
experimental_result = "Not Active"

[[record]]
compound = "[N-]=[N+]=NCCOCCOCCO[Si]1(OCCOCCOCCO)n2c3c4ccccc4c2/N=C2N=C(/N=c4/c5ccccc5/c(n41)=N/C1=NC(=N\\3)/c3ccccc31)c1ccccc1\\2 (centres undefined)"
measure = "Activity"
experimental_result = "Not Active"


Go through the list and state Activity for each entry.
1. OCCOCCOCCOCCO[Si]1(OCCOCCOCCOCCO)n2c3c4ccccc4c2/N=C2N=C(/N=c4/c5ccccc5/c(n41)=N/C1=NC(=N\3)/c3ccccc31)c1ccccc1\2
2. [N-]=[N+]=NCCOCCO[Si]1(OCCOCCO)n2c3c4ccccc4c2/N=C2N=C(/N=c4/c5ccccc5/c(n41)=N/C1=NC(=N\3)/c3ccccc31)c1ccccc1\2 (centres undefined)
3. [N-]=[N+]=NCCOCCOCCO[Si]1(OCCOCCOCCN=[N+]=[N-])n2c3c4ccccc4c2/N=C2N=C(/N=c4/c5ccccc5/c(n41)=N/C1=NC(=N\3)/c3ccccc31)c1ccccc1\2 (centres undefined)

Not Active
Not Active
Not Active
